target: Perilipin-1 (Homo sapiens) (UniProt O60240); assay: inhibitors of ABHD5-PLIN1 binding, dose response, counter-screen for ABHD5-PLIN5 interaction inhibitor project, biochemical, luminescence (AID 651672);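 note: split Gaussia luciferase complementation between ABHD5 and PLIN1 fusion fragments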
Sequence (O60240 whole entry, looked up, the tested form may be a part): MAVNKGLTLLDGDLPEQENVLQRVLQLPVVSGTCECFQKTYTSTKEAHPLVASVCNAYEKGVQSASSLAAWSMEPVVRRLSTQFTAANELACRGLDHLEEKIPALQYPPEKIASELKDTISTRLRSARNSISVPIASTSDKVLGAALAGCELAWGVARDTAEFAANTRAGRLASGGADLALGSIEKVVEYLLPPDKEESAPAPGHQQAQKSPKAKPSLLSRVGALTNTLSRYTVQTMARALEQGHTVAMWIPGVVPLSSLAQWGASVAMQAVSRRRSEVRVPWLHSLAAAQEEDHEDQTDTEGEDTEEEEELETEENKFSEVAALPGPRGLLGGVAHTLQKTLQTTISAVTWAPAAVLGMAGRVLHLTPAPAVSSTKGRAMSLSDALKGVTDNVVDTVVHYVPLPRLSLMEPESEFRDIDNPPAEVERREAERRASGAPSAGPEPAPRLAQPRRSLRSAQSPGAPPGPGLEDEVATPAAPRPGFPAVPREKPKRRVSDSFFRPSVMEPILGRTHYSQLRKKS
Activity calls are given as the source filed them. The rule behind the calls is not given here.
Outcome codes: 1.0 = active, 0.0 = inactive

COMPOUND: CN1CCC[C@@H]1CCO[C@](C)(c1ccccc1)c1ccc(Cl)cc1
ASSAYED_TARGET: Perilipin-1 (Homo sapiens) (UniProt O60240)
CATEGORY_LABEL: 0.0
--
COMPOUND: Cc1ccc(O)c(C(=O)C=Cc2ccccc2)c1
ASSAYED_TARGET: Perilipin-1 (Homo sapiens) (UniProt O60240)
CATEGORY_LABEL: 1.0
--
COMPOUND: CC(C)(C)NC(=O)C(c1ccc(C(F)(F)F)cc1)n1c(=O)c(-c2ccco2)nc2ccccc21 (stereo not drawn)
ASSAYED_TARGET: Perilipin-1 (Homo sapiens) (UniProt O60240)
CATEGORY_LABEL: 1.0
--
COMPOUND: Cc1ccc(SC2=C(Sc3ccc(C)cc3)C(=O)c3ccccc3C2=O)cc1
ASSAYED_TARGET: Perilipin-1 (Homo sapiens) (UniProt O60240)
CATEGORY_LABEL: 1.0
--
COMPOUND: O=S(=O)(NC1=NCCCCC1)c1ccc2sc(NS(=O)(=O)c3ccc4ccccc4c3)nc2c1
ASSAYED_TARGET: Perilipin-1 (Homo sapiens) (UniProt O60240)
CATEGORY_LABEL: 0.0
--
COMPOUND: CN(C)CCCN(C(=O)CCc1ccccc1)c1nc2ccc(Br)cc2s1
ASSAYED_TARGET: Perilipin-1 (Homo sapiens) (UniProt O60240)
CATEGORY_LABEL: 1.0
--
COMPOUND: FC(F)(F)c1cccc(NC(=S)N(CCCN2CCCC2)Cc2cccn2Cc2ccc(Cl)cc2)c1
ASSAYED_TARGET: Perilipin-1 (Homo sapiens) (UniProt O60240)
CATEGORY_LABEL: 0.0
--
COMPOUND: Cc1cccc(C)c1NC(=O)C(c1ccc(C(F)(F)F)cc1)n1c(=O)c(-c2ccco2)nc2ccccc21 (stereo not drawn)
ASSAYED_TARGET: Perilipin-1 (Homo sapiens) (UniProt O60240)
CATEGORY_LABEL: 1.0
--
COMPOUND: N#Cc1ccccc1OCc1cn(CC(=O)c2ccc(O)cc2)nn1
ASSAYED_TARGET: Perilipin-1 (Homo sapiens) (UniProt O60240)
CATEGORY_LABEL: 1.0
--
COMPOUND: COc1ccc(C(C(=O)NC2CCCCC2)n2c(=O)c(-c3ccco3)nc3ccccc32)cc1 (stereo not drawn)
ASSAYED_TARGET: Perilipin-1 (Homo sapiens) (UniProt O60240)
CATEGORY_LABEL: 1.0
--
COMPOUND: CN(C)CCOc1ccc(/C(=C(/CCCl)c2ccccc2)c2ccccc2)cc1
ASSAYED_TARGET: Perilipin-1 (Homo sapiens) (UniProt O60240)
CATEGORY_LABEL: 1.0
--
COMPOUND: C#CCOCCOCCOCCNc1nc(N2CCN(C(=O)CCCCCCCCCCNC(=O)[C@@H](CCSC)n3cc(CCO)nn3)CC2)nc(N2CCN(C(=O)CCCCCCCCCCNC(=O)[C@@H]([C@H](C)O)n3cc(C)nn3)CC2)n1
ASSAYED_TARGET: Perilipin-1 (Homo sapiens) (UniProt O60240)
CATEGORY_LABEL: 0.0
--
COMPOUND: CCOC(=O)c1c(C)oc2c1c(CN1CCN(CCO)CC1)c(O)c1ccccc12
ASSAYED_TARGET: Perilipin-1 (Homo sapiens) (UniProt O60240)
CATEGORY_LABEL: 1.0
--
COMPOUND: COC(=O)c1cc(=O)n(-c2ccc(F)cc2)c(=Nc2ccc(F)cc2)s1
ASSAYED_TARGET: Perilipin-1 (Homo sapiens) (UniProt O60240)
CATEGORY_LABEL: 1.0
--
COMPOUND: C#CCN(C[C@@H]1[C@@H](OC(=O)NCc2ccccc2F)[C@@H](OC(=O)NCc2ccccc2F)Cn2c(=O)ccc(=O)n21)S(=O)(=O)c1ccc(C)cc1
ASSAYED_TARGET: Perilipin-1 (Homo sapiens) (UniProt O60240)
CATEGORY_LABEL: 1.0
--
COMPOUND: O=C(NCc1ccccc1)C(c1cc2ccccc2o1)n1c(=O)c(-c2ccco2)nc2ccccc21 (stereo not drawn)
ASSAYED_TARGET: Perilipin-1 (Homo sapiens) (UniProt O60240)
CATEGORY_LABEL: 1.0
--
COMPOUND: COc1ccc(/C=C/C(=O)c2cc(F)ccc2OC(=O)c2ccc(OC)c(OC)c2)cc1OC
ASSAYED_TARGET: Perilipin-1 (Homo sapiens) (UniProt O60240)
CATEGORY_LABEL: 1.0
--
COMPOUND: CC(=O)Cc1cc(O)c2ccccc2c1OC(=O)c1ccccc1
ASSAYED_TARGET: Perilipin-1 (Homo sapiens) (UniProt O60240)
CATEGORY_LABEL: 1.0
--
COMPOUND: CSc1nnc(NC(=O)c2nc(S(=O)(=O)Cc3ccccc3)ncc2Cl)s1
ASSAYED_TARGET: Perilipin-1 (Homo sapiens) (UniProt O60240)
CATEGORY_LABEL: 1.0
--
COMPOUND: O=C(NC1CCCCC1)C(c1ccccc1F)n1c(=O)c(-c2ccco2)nc2ccccc21 (stereo not drawn)
ASSAYED_TARGET: Perilipin-1 (Homo sapiens) (UniProt O60240)
CATEGORY_LABEL: 1.0
--
COMPOUND: O=C1NC(=O)N(c2ccccc2F)C(=O)/C1=C/c1ccc(Oc2ccc([N+](=O)[O-])cn2)cc1
ASSAYED_TARGET: Perilipin-1 (Homo sapiens) (UniProt O60240)
CATEGORY_LABEL: 1.0
--
COMPOUND: O=C(Nc1ccc2c(c1)OCCO2)C(c1ccnc2ccccc12)n1c(=O)c(-c2ccco2)nc2ccccc21 (stereo not drawn)
ASSAYED_TARGET: Perilipin-1 (Homo sapiens) (UniProt O60240)
CATEGORY_LABEL: 0.0
--
COMPOUND: CC1=CC(C)(C)Nc2ccc(OC(=O)C(C)N3C(=O)c4ccccc4C3=O)cc21 (stereo not drawn)
ASSAYED_TARGET: Perilipin-1 (Homo sapiens) (UniProt O60240)
CATEGORY_LABEL: 1.0
--
COMPOUND: CCN(CC)CCOCCOC(=O)C1(c2ccccc2)CCCC1
ASSAYED_TARGET: Perilipin-1 (Homo sapiens) (UniProt O60240)
CATEGORY_LABEL: 1.0
--
COMPOUND: CC(C)(C)NC(=O)C(c1cccc2ccccc12)n1c(=O)c(-c2ccco2)nc2ccccc21 (stereo not drawn)
ASSAYED_TARGET: Perilipin-1 (Homo sapiens) (UniProt O60240)
CATEGORY_LABEL: 1.0
--
COMPOUND: COc1ccccc1C=CC(=O)C=Cc1ccccc1OC
ASSAYED_TARGET: Perilipin-1 (Homo sapiens) (UniProt O60240)
CATEGORY_LABEL: 1.0
--
COMPOUND: Cc1nc(-c2ccccc2)sc1C(=O)/C=C/c1ccccc1
ASSAYED_TARGET: Perilipin-1 (Homo sapiens) (UniProt O60240)
CATEGORY_LABEL: 1.0
--
COMPOUND: CC(C)c1ccc(N2C=Nc3ccc(C(C)C)cc3C2)cc1
ASSAYED_TARGET: Perilipin-1 (Homo sapiens) (UniProt O60240)
CATEGORY_LABEL: 1.0

These measurements were taken from PubChem BioAssay AID651672.
